Reported AC50 values for a set of molecules
biological target: Alpha-2A adrenergic receptor (Homo sapiens); assay type: functional, cell-based; further: assay procedure not described here
Sequence (P08913 whole entry): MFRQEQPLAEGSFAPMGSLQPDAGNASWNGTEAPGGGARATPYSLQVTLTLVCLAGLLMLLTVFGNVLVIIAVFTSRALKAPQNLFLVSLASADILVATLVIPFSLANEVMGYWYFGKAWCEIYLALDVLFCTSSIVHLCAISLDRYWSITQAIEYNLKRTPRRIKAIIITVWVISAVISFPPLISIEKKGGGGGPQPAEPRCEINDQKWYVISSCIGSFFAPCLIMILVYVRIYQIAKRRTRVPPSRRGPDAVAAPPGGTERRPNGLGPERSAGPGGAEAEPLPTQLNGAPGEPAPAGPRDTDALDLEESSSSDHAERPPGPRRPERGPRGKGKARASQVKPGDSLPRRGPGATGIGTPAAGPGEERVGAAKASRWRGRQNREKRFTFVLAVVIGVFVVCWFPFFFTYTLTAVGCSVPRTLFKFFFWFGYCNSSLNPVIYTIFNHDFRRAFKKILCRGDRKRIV

Reference set (2 entries):
C=C1CC[C@@]2(O)[C@H]3Cc4ccc(O)c5c4[C@@]2(CCN3CC2CC2)[C@H]1O5    > 30 µM
CN(C)[C@@H]1C(O)=C(C(N)=O)C(=O)[C@@]2(O)C(O)=C3C(=O)c4c(O)ccc(Cl)c4[C@@H](O)[C@H]3C[C@@H]12 [DEMECLOCYCLINE]    > 10 µM

Sample NC(=O)C[S+]([O-])C(c1ccccc1)c1ccccc1 (centres undefined) [MODAFINIL] , system: Alpha-2A adrenergic receptor (Homo sapiens). Its AC50 is > 10 µM

The value of AC50 recorded for CN[C@@H]1[C@H](O)[C@H](NC)[C@H]2O[C@@]3(O)C(=O)C[C@@H](C)O[C@H]3O[C@@H]2[C@H]1O [SPECTINOMYCIN] when tested on Alpha-2A adrenergic receptor (Homo sapiens) reads > 10 µM

* * *

Some molecules, each annotated with its measured AC50.
target: Progesterone receptor (Homo sapiens, UniProt P06401); type: functional; further: assay procedure not described here
Sequence (P06401 whole entry): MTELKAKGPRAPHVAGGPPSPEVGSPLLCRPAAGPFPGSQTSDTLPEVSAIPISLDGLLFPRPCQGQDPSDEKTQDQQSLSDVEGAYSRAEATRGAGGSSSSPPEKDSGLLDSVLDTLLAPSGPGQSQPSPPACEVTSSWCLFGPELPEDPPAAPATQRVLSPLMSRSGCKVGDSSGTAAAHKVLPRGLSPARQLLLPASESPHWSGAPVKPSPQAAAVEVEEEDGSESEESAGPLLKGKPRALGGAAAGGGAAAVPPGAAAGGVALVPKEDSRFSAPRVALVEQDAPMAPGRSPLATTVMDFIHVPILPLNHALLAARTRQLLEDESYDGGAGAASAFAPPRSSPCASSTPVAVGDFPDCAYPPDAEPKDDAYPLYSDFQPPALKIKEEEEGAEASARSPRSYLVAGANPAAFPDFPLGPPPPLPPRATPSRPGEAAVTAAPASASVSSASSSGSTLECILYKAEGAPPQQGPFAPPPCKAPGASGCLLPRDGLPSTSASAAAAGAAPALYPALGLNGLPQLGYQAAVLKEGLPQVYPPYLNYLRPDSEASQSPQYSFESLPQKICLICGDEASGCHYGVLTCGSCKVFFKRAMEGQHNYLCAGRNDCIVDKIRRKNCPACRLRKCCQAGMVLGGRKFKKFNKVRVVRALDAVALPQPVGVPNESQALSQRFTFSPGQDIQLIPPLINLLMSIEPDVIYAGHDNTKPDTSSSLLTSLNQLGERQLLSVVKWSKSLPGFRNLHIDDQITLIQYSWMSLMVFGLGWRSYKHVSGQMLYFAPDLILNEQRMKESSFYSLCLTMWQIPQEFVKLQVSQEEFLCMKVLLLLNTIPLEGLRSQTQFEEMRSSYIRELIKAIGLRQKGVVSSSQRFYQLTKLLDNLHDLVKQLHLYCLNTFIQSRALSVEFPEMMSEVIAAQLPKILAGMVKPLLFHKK

O=C(OCCN1CCOCC1)c1cccnc1Nc1cccc(C(F)(F)F)c1 [MORNIFLUMATE]    > 30 µM
CN1CCCC(n2nc(Cc3ccc(Cl)cc3)c3ccccc3c2=O)CC1 (centres undefined) [AZELASTINE]    > 30 µM
CC[C@H](C)C(=O)O[C@H]1C[C@H](O)C=C2C=C[C@H](C)[C@H](CC[C@@H](O)C[C@@H](O)CC(=O)O)[C@H]21 [PRAVASTATIN]    > 30 µM
CN[C@@H]1[C@H](O)[C@H](NC)[C@H]2O[C@@]3(O)C(=O)C[C@@H](C)O[C@H]3O[C@@H]2[C@H]1O [SPECTINOMYCIN]    > 10 µM

Then there is this molecule:
The reported value for N[C@@H](CSCC(=O)O)C(=O)O [CARBOCYSTEINE] in terms of AC50 is > 30 µM

* * *

target: 5-hydroxytryptamine receptor 3A (Homo sapiens); format: functional; further: assay procedure not described here
Sequence (P46098 whole entry): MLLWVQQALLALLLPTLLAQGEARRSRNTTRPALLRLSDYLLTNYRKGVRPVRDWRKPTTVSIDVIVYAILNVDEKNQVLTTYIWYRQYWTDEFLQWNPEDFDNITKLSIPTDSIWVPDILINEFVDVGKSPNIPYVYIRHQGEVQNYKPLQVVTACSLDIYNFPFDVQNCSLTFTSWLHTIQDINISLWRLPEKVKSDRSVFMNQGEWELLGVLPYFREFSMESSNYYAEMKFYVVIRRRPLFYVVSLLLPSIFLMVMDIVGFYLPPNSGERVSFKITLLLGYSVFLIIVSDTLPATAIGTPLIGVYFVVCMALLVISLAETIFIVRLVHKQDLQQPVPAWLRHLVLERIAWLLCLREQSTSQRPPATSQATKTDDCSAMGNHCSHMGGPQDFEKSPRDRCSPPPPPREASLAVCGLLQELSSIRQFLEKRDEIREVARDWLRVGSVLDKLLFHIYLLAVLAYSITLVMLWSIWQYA
measurement.name: AC50

CCc1nn(CCCN2CCN(c3cccc(Cl)c3)CC2)c(=O)n1CCOc1ccccc1 [NEFAZODONE]    > 10 µM
Cc1cc2c(OCC(CNC(C)(C)C)OC(=O)c3ccccc3)cccc2[nH]1 (stereo not given) [BOPINDOLOL]    > 30 µM
O=C1CCC(N2C(=O)c3ccccc3C2=O)C(=O)N1 (stereo not given) [THALIDOMIDE]    > 30 µM
C#C[C@]1(O)CC[C@H]2[C@@H]3CCc4cc(O)ccc4[C@H]3CC[C@@]21C [ETHINYL ESTRADIOL]    > 30 µM
CO/N=C(\C(=O)N[C@@H]1C(=O)N2C(C(=O)OCOC(=O)C(C)(C)C)=C(C)CS[C@H]12)c1csc(N)n1    > 30 µM

Memo: Cc1nc2ccc(CN(C)c3ccc(C(=O)N[C@@H](CCC(=O)O)C(=O)O)s3)cc2c(=O)[nH]1 [RALTITREXED] , reported AC50: > 30 µM

AC50 reading for CCN(CC)CCOC(=O)c1ccc(N)cc1 [PROCAINE] : 22 µM

The compound identified as CCc1ccc(CCOc2ccc(CC3SC(=O)NC3=O)cc2)nc1 (stereo not given) [PIOGLITAZONE] registered its AC50 at > 10 µM

* * *

# collection of AC50 values tested on Sodium-dependent noradrenaline transporter (Homo sapiens); further: assay procedure not described here
# Sequence (P23975 whole entry): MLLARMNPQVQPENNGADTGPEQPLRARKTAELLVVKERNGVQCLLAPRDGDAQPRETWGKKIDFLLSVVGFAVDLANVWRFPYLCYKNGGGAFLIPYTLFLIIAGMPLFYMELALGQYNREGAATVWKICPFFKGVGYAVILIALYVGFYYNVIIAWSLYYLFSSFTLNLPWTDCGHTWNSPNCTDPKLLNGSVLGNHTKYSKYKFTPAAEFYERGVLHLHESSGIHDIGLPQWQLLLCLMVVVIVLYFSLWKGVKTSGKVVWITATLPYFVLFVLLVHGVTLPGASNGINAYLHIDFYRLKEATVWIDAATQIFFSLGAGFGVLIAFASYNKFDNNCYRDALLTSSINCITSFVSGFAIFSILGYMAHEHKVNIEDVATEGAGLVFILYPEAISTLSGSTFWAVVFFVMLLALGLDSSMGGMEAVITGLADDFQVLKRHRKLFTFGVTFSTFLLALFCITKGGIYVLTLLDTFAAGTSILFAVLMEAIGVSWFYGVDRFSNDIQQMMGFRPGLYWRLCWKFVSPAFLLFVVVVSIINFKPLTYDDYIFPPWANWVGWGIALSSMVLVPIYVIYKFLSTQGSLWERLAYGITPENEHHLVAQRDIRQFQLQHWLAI

Sample records with AC50:
CC(Cc1ccccc1)NCCC(c1ccccc1)c1ccccc1 (configuration not stated)    2.3 µM
CN(C)C(=O)OC1N=C(c2ccccc2)c2cc(Cl)ccc2N(C)C1=O (configuration not stated)    > 10 µM
CCCS(=O)(=O)Nc1ccc(F)c(C(=O)c2c[nH]c3ncc(-c4ccc(Cl)cc4)cc23)c1F    > 30 µM
CC/C=C\C/C=C\C/C=C\CCCCCCCC(=O)O    > 30 µM
CN1CC[C@]23CCCC[C@H]2[C@H]1Cc1ccc(O)cc13    > 30 µM
Cc1cc(-c2ccccc2)nnc1NCCN1CCOCC1    > 10 µM
CCCC(=O)N1CCCN(c2nc(N)c3cc(OC)c(OC)cc3n2)CC1    > 30 µM
CCCOc1ccc(C(=O)OCCN(CC)CC)cc1N    > 30 µM
C[C@]12CCC(=O)C=C1CC[C@@H]1[C@@H]2CC[C@@]2(C)[C@H]1CC[C@]2(C)O    > 30 µM
Cc1cccc(C)c1NC(=O)C1CCCCN1C (configuration not stated) [MEPIVACAINE]    > 30 µM

Query CC(=O)O[C@@]12CO[C@@H]1C[C@H](O)[C@@]1(C)C(=O)[C@H](O)C3=C(C)[C@@H](OC(=O)[C@H](O)[C@@H](NC(=O)OC(C)(C)C)c4ccccc4)C[C@@](O)([C@@H](OC(=O)c4ccccc4)[C@H]21)C3(C)C [DOCETAXEL ANHYDROUS] on Sodium-dependent noradrenaline transporter (Homo sapiens); AC50 returned: > 30 µM

Entry CCC[C@@H]1C[C@@H](C(=O)N[C@@H]([C@H]2O[C@H](SC)[C@H](O)[C@@H](O)[C@H]2O)[C@H](C)Cl)N(C)C1 ; assay system Sodium-dependent noradrenaline transporter (Homo sapiens); AC50 recorded at > 10 µM

Reported Sodium-dependent noradrenaline transporter (Homo sapiens) AC50 for item CO/N=C(\C(=O)N[C@@H]1C(=O)N2C(C(=O)[O-])=C(C[N+]3(C)CCCC3)CS[C@H]12)c1csc(N)n1 was > 300 µM

Tested on Sodium-dependent noradrenaline transporter (Homo sapiens): Cc1ccc(-c2nc3ccc(C)cn3c2CC(=O)N(C)C)cc1 . Observed AC50: > 30 µM

GET /values?item= Nc1ncnc2c1ncn2[C@@H]1O[C@H](COP(=O)(O)O)[C@@H](O)[C@H]1O [ADENOSINE PHOSPHATE] &system= Sodium-dependent noradrenaline transporter (Homo sapiens) returns AC50: > 30 µM

Form: item COc1cc(Nc2c(C#N)cnc3cc(OCCCN4CCN(C)CC4)c(OC)cc23)c(Cl)cc1Cl ; test system Sodium-dependent noradrenaline transporter (Homo sapiens); AC50: > 10 µM

For the compound CN(C/C=C/c1ccccc1)Cc1cccc2ccccc12 , the measured AC50 on Sodium-dependent noradrenaline transporter (Homo sapiens) was 11.1 µM

* * *

The molecules below have reported AC50 for Growth hormone secretagogue receptor type 1 (Homo sapiens, UniProt Q92847).

These recorded examples may help you get a feel for the data.
CC(C)(N)Cc1ccc(Cl)cc1 [CHLORPHENTERMINE]    > 30 µM
NS(=O)(=O)c1cc2c(cc1Cl)NCNS2(=O)=O [HYDROCHLOROTHIAZIDE]    > 30 µM
CN1CCCC(n2nc(Cc3ccc(Cl)cc3)c3ccccc3c2=O)CC1 (centres undefined) [AZELASTINE]    14 µM
O=C(CCCCC(=O)Nc1c(I)cc(I)c(C(=O)O)c1I)Nc1c(I)cc(I)c(C(=O)O)c1I [IODIPAMIDE]    > 10 µM
COc1ccc(C(=O)NCc2ccc(OCCN(C)C)cc2)cc1OC [ITOPRIDE]    > 30 µM
CC(C)NCC1CCc2cc(CO)c([N+](=O)[O-])cc2N1 (centres undefined) [OXAMNIQUINE]    > 10 µM
Nc1nc(N)c2nc(-c3ccccc3)c(N)nc2n1    > 30 µM
CC(C(=O)O)c1ccc(N2CC=CC2)c(Cl)c1 (centres undefined) [PIRPROFEN]    > 30 µM

# ---- query molecule ----
The measured AC50 that O=P(O)(O)C(O)(Cc1cccnc1)P(=O)(O)O [RISEDRONIC ACID] showed for Growth hormone secretagogue receptor type 1 (Homo sapiens, UniProt Q92847) is > 30 µM

* * *

Heads up, these compounds all have AC50 values measured for D(1A) dopamine receptor (Homo sapiens, UniProt P21728).

Answered cases to consult:
O=C(NC[C@H]1CN(c2ccc(N3CCOCC3=O)cc2)C(=O)O1)c1ccc(Cl)s1    > 30 µM
COc1cc(Nc2c(C#N)cnc3cc(OCCCN4CCN(C)CC4)c(OC)cc23)c(Cl)cc1Cl    4.64 µM
O=C(O)c1cccc(-c2noc(-c3ccccc3F)n2)c1    > 30 µM
C[C@@H]1C[C@H]2[C@@H]3C[C@H](F)C4=CC(=O)C=C[C@]4(C)[C@@]3(F)[C@@H](O)C[C@]2(C)[C@@]1(O)C(=O)COC(=O)C(C)(C)C [FLUMETHASONE PIVALATE]    > 30 µM
COc1cc(NCc2ccc3nc(N)nc(N)c3c2C)cc(OC)c1OC [TRIMETREXATE]    1.94 µM

Looking up NC(=O)c1cccc2cn(-c3ccc([C@@H]4CCCNC4)cc3)nc12 , I see its AC50 listed as > 30 µM

* * *

Read-out record for Histamine H1 receptor (Homo sapiens, UniProt P35367): AC50

Example cases with answers are listed next.
CO/N=C(\C(=O)N[C@@H]1C(=O)N2C(C(=O)[O-])=C(C[N+]3(C)CCCC3)CS[C@H]12)c1csc(N)n1    > 300 µM
CN(C/C=C/c1ccccc1)Cc1cccc2ccccc12 [NAFTIFINE]    > 10 µM

Next compound, please.
For record CC(=O)N[C@H]1[C@H]([C@H](O)[C@H](O)CO)OC(C(=O)O)=C[C@@H]1N=C(N)N [ZANAMIVIR] the listed AC50 is > 30 µM

Value source: ChEMBL document CHEMBL5291721
